system: Staphylococcus aureus; assay: Antibacterial activity against methicillin-resistant Staphylococcus aureus clinical isolate 1 incubated for 16 to 18 hrs by CLSI-based microbroth dilution method; format: functional; conditions: time 16-18 hrs
endpoint: MIC (µg/mL)
Numbers only, in µg/mL.

[[record]]
structure_string = "COc1cc2c(c(O)c1C(=O)/C=C/c1ccc(OCCCC[N+](C)(C)CC(=O)N3CCSCC3)cc1)C=CC(C)(C)O2.[Br-]"
test_target = "Staphylococcus aureus"
measured_result = 4


List reported MIC for each of these compounds:
1. CCCCN(CCCC)C(=O)C[N+](C)(C)CCCCOc1ccc(/C=C/C(=O)c2c(OC)cc3c(c2O)C=CC(C)(C)O3)cc1.[Br-]
2. COc1cc2c(c(O)c1C(=O)/C=C/c1ccc(OCCCCC[N+](C)(C)CC(=O)N(C(C)C)C(C)C)cc1)C=CC(C)(C)O2.[Br-]
3. CCCCCCNC(=O)C[N+](C)(C)CCCCCOc1ccc(/C=C/C(=O)c2c(OC)cc3c(c2O)C=CC(C)(C)O3)cc1.[Br-]
4. CCCCN(CCCC)C(=O)C[N+](C)(C)CCCOc1ccc(/C=C/C(=O)c2c(OC)cc3c(c2O)C=CC(C)(C)O3)cc1.[Br-]

1. 1
2. 2
3. 2
4. 2

List reported MIC for each of these compounds:
1. COc1cc2c(c(O)c1C(=O)/C=C/c1ccc(OCCC[N+](C)(C)CC(=O)N(CC(C)C)CC(C)C)cc1)C=CC(C)(C)O2.[Br-]
2. COc1cc2c(c(O)c1C(=O)/C=C/c1ccc(OCCC[N+](C)(C)CC(=O)N(C(C)C)C(C)C)cc1)C=CC(C)(C)O2.[Br-]

1: 2; 2: 2

* * *

Assignment: determine reported HC50 at 1 h for the given compounds.
assay: Hemolytic activity in sheep erythrocytes incubated for 1 hr by absorbance based analysis; format: toxicity, cell-based, Ovis aries, Erythrocyte
Numbers only, in µg/mL.

Consider the following illustrative entries.
[[record]]
structure_string = "CCCCN(CCCC)C(=O)C[N+](C)(C)CCCOc1ccc(/C=C/C(=O)c2c(OC)cc3c(c2O)C=CC(C)(C)O3)cc1.[Br-]"
measured_result = 434

[[record]]
structure_string = "CCCN(CCC)C(=O)C[N+](C)(C)CCCCCOc1ccc(/C=C/C(=O)c2c(OC)cc3c(c2O)C=CC(C)(C)O3)cc1.[Br-]"
measured_result = 436

[[record]]
structure_string = "COc1cc2c(c(O)c1C(=O)/C=C/c1ccc(OCCC[N+](C)(C)CC(=O)N(CC(C)C)CC(C)C)cc1)C=CC(C)(C)O2.[Br-]"
measured_result = 447


List reported HC50 at 1 h for each of these compounds:
1. CCCCN(CCCC)C(=O)C[N+](C)(C)CCCCOc1ccc(/C=C/C(=O)c2c(OC)cc3c(c2O)C=CC(C)(C)O3)cc1.[Br-]
2. COc1cc2c(c(O)c1C(=O)/C=C/c1ccc(OCCCCC[N+](C)(C)CC(=O)N3CCSCC3)cc1)C=CC(C)(C)O2.[Br-]
3. CCCCCCNC(=O)C[N+](C)(C)CCCOc1ccc(/C=C/C(=O)c2c(OC)cc3c(c2O)C=CC(C)(C)O3)cc1.[Br-]

466
210
97.9

* * *

tested on: Staphylococcus aureus; experiment: Antibacterial activity against methicillin-resistant Staphylococcus aureus clinical isolate 3 incubated for 16 to 18 hrs by CLSI-based microbroth dilution method; format: functional; settings: time 16-18 hrs
endpoint: MIC (µg/mL)
Give bare numbers, in µg/mL.

Consider the following illustrative entries.
[[record]]
structure_string = "COc1cc2c(c(O)c1C(=O)/C=C/c1ccc(OCCC[N+](C)(C)CC(=O)N(CC(C)C)CC(C)C)cc1)C=CC(C)(C)O2.[Br-]"
unit_tag = "µg/mL"
measured_result = 1

[[record]]
structure_string = "CCCN(CCC)C(=O)C[N+](C)(C)CCCOc1ccc(/C=C/C(=O)c2c(OC)cc3c(c2O)C=CC(C)(C)O3)cc1.[Br-]"
unit_tag = "µg/mL"
measured_result = 1


Identify measured MIC associated with CCCCCCNC(=O)C[N+](C)(C)CCCOc1ccc(/C=C/C(=O)c2c(OC)cc3c(c2O)C=CC(C)(C)O3)cc1.[Br-] 2
